B1: library; numbered along this chain (parent)
chain: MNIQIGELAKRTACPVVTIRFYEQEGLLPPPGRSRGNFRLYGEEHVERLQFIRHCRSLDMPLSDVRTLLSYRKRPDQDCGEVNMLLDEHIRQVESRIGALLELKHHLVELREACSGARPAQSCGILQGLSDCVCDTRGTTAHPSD

variants of: B1; experiment: sfGFP reporter fluorescence (15 h) (µM FITC); higher = higher leak; conditions: library round: Round 0; ligand: none
Each item that follows carries a reported sfGFP reporter fluorescence.
Please respond with just the number, no unit label.

Answered examples (5):
>  <RESIDUE CHANGE>
L68K

>  <sfGFP reporter fluorescence>
0.0608

$$$$
>  <RESIDUE CHANGE>
G6I

>  <sfGFP reporter fluorescence>
0.0585

$$$$
>  <RESIDUE CHANGE>
V65A

>  <sfGFP reporter fluorescence>
0.0629

$$$$
>  <RESIDUE CHANGE>
L85A

>  <sfGFP reporter fluorescence>
0.0586

$$$$
>  <RESIDUE CHANGE>
M60L P61N K104V G128I

>  <sfGFP reporter fluorescence>
0.148

$$$$

Recorded sfGFP reporter fluorescence of `C55K` , please. 0.0608

Proceed to `P15T` 0.0632

Proceed to `L28F` 0.0603

Proceed to `L62I` 0.0599

Proceed to `I125A` 0.0572

Proceed to P61N K104V G128M 0.395

Provenance of the data: the supplement of paper PMC12783771
